All values here come from patent US20220348590A1.

Target: human recombinant COX2 (hCOX2) (UniProt P35354)
Sequence (P35354 1-604): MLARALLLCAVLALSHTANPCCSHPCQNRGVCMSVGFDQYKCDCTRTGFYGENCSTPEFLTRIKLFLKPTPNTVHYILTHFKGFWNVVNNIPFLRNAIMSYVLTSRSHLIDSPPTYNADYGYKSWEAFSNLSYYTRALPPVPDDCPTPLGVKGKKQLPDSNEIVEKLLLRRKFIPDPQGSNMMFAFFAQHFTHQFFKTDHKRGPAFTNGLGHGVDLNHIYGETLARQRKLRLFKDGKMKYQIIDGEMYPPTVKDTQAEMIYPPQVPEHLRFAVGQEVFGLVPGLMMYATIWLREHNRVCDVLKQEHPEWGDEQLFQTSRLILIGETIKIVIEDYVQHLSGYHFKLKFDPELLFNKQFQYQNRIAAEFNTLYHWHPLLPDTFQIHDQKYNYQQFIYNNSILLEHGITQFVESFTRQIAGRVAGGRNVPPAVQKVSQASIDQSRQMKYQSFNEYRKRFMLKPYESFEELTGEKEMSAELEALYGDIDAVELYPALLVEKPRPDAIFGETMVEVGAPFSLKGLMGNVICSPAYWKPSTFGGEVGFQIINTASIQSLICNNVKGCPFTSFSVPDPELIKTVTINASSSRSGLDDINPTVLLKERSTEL
Test: LCMS-based COX2 enzymatic inhibition assay (PGE2 quantification)
Assay type: biochemical
Set-up: COX2 2 minutes pge2/pge2d4 area ratio Avg; other: 2 minutes; readout pge2/pge2d4 area ratio; average; COX2 2 minutes pge2/pge2d4 area ratio Avg; LLE; average LLE; COX2 2 minutes pge2 area (counts) Avg; readout pge2 area (counts); other: 2 min; "ovine COX2 (oCOX2), human recombinant COX2 (hCOX2)"
Conditions: 2 minutes; readout pge2/pge2d4 area ratio; average; read-out: COX2 2 minutes pge2/pge2d4 area ratio Avg. IC50
From the text: We have adapted a previously reported cyclooxygenase enzymatic assay utilizing LCMS quantification of PGE2 as the product of COX-1 and COX2 catalyzed conversion of arachidonic acid to evaluate the binding properties of newly synthesized ligands [Cao, 2011]. […] Using these enzymatic assays, we have evaluated>200 newly synthesized ligands against COX2 and >20 ligands against COX-1. […]
pIC50: −log10 of the molar value.
REPORTED ENDPOINT: pIC50

[[record]]
compound = "COc1ccc(NCc2ccco2)nc1-c1ccc(S(C)(=O)=O)cc1"
reported_endpoint = "pIC50"
value_observed = 6.57

[[record]]
compound = "CS(=O)(=O)c1ccc(-c2cncc(OCc3ccco3)n2)cc1"
reported_endpoint = "pIC50"
value_observed = 6.65

[[record]]
compound = "CS(=O)(=O)c1ccc(-c2nc(NCc3cccs3)cnc2C(N)=O)cc1"
reported_endpoint = "pIC50"
value_observed = 5.39

[[record]]
compound = "CS(=O)(=O)c1ccc(-c2cccc(C(=O)C(=O)c3cccs3)n2)cc1"
reported_endpoint = "pIC50"
value_observed = 6.15

[[record]]
compound = "CS(=O)(=O)c1ccc(-c2cccc([S@+]([O-])Cc3cccs3)n2)cc1"
reported_endpoint = "pIC50"
value_observed = 5.43

[[record]]
compound = "CS(=O)(=O)c1ccc(-c2cccc(NCc3cccs3)c2)cc1"
reported_endpoint = "pIC50"
value_observed = 7.71

[[record]]
compound = "CS(=O)(=O)c1ccc(-c2cncc(OCc3cccs3)c2)cc1"
reported_endpoint = "pIC50"
value_observed = 5.62

[[record]]
compound = "CS(=O)(=O)c1ccc(-c2cncc(SCc3cccs3)n2)cc1"
reported_endpoint = "pIC50"
value_observed = 8.00

[[record]]
compound = "CS(=O)(=O)c1ccc(-c2cccc([S@@+]([O-])Cc3cccs3)n2)cc1"
reported_endpoint = "pIC50"
value_observed = 5.32

[[record]]
compound = "COCc1ccc(-c2ccc(S(C)(=O)=O)cc2)nc1NCc1cccs1"
reported_endpoint = "pIC50"
value_observed = 6.18

[[record]]
compound = "CS(=O)(=O)c1ccc(-c2nc(OCc3cccs3)cc3ccoc23)cc1"
reported_endpoint = "pIC50"
value_observed = 8.22

[[record]]
compound = "COc1ncc(-c2ccc(S(C)(=O)=O)cc2)nc1NCc1ccncc1"
reported_endpoint = "pIC50"
value_observed = 5.62

[[record]]
compound = "CS(=O)(=O)c1ccc(-c2nc(NCc3cccs3)cc3ccoc23)cc1"
reported_endpoint = "pIC50"
value_observed = 8.29

[[record]]
compound = "CS(=O)(=O)c1ccc(-c2cccc(C[C@@H](O)c3cccs3)n2)cc1"
reported_endpoint = "pIC50"
value_observed = 5.28

[[record]]
compound = "CS(=O)(=O)c1ccc(-c2cccc(NCc3ccno3)n2)cc1"
reported_endpoint = "pIC50"
value_observed = 6.29

[[record]]
compound = "CS(=O)(=O)c1ccc(-c2cnnc(OCc3ccco3)c2)cc1"
reported_endpoint = "pIC50"
value_observed = 5.40

[[record]]
compound = "CS(=O)(=O)c1ccc(-c2nncc(NCc3cccs3)n2)cc1"
reported_endpoint = "pIC50"
value_observed = 6.35

[[record]]
compound = "C[C@H](Oc1cccc(-c2ccc(S(C)(=O)=O)cc2)n1)c1cccs1 (single isomer, unassigned)"
reported_endpoint = "pIC50"
value_observed = 7.69


====

Biological target: human recombinant COX2 (hCOX2)
Assay: LCMS-based COX2 enzymatic inhibition assay (PGE2 quantification)
Type: biochemical
Design: COX2 2 minutes pge2/pge2d4 area ratio Avg; other: 2 minutes; readout pge2/pge2d4 area ratio; average; COX2 2 minutes pge2/pge2d4 area ratio Avg; LLE; average LLE; COX2 2 minutes pge2 area (counts) Avg; readout pge2 area (counts); other: 2 min; "ovine COX2 (oCOX2), human recombinant COX2 (hCOX2)"
Conditions: 2 minutes; readout pge2 area (counts); average LLE
Cut-off 4 on COX2 2 minutes pge2 area (counts) Avg. LLE, inclusive. At or above means Fulfilled; below means Not fulfilled.

[[record]]
compound = "C[S+]([O-])c1ccc(-c2cccc(OCc3cccs3)n2)cc1 (stereo not drawn) [Compound 157]"
assigned_category = "Not fulfilled"

[[record]]
compound = "CS(=O)(=O)c1ccc(-c2nc(OCc3cccs3)ccc2F)cc1 [Compound 101]"
assigned_category = "Not fulfilled"

[[record]]
compound = "CN(Cc1ccco1)c1cccc(-c2ccc(S(C)(=O)=O)cc2)n1 [Compound 200]"
assigned_category = "Not fulfilled"

[[record]]
compound = "CS(=O)(=O)c1ccc(-c2cnnc(NCc3cccs3)n2)cc1 [Compound 114]"
assigned_category = "Fulfilled"

[[record]]
compound = "CS(=O)(=O)c1ccc(-c2cccc(C(=O)C(=O)c3cccs3)n2)cc1 [Compound 190]"
assigned_category = "Not fulfilled"

[[record]]
compound = "CS(=O)(=O)c1ccc(-c2cncc(NCc3ccoc3)n2)cc1 [Compound 110]"
assigned_category = "Fulfilled"

[[record]]
compound = "CS(=O)(=O)c1ccc(-c2cncc(SCc3cnco3)n2)cc1 [Compound 226]"
assigned_category = "Not fulfilled"

[[record]]
compound = "CN1CCN(c2cncc(-c3ccc(S(C)(=O)=O)cc3)n2)CC1 [Compound 287]"
assigned_category = "Fulfilled"

